# test_method_notes: NCI Yeast Anticancer Drug Screen. Data for the sgs1 mgt1 strain (AID 161);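 also: 0% = growth of cultures given vehicle only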
# condition: S. cerevisiae sgs1 mgt1 strain, at 50.0 µM, active compounds read high
# Procedure: Growth inhibition of yeast strains with defined genetic alterations is measured as a screen for potential anti-cancer activity. Selected strains with alterations in DNA damage repair or cell cycle control were exposed to compounds and growth inhibition was measured relative to vehicle treated controls. The strain used in this assay is sgs1 mgt1
Compounds without any hit were thinned out: in the full panel of roughly 79,000, 15% have a hit.
Threshold check on growth inhibition: at or above 90% gives rule met, strictly below gives rule not met.

Exam item: decide whether the reported growth inhibition for Nc1ncncc1C(C1=C(O)COC1=O)C1=C(O)COC1=O is at least 90%.
rule not met

Entry CN(C)C[C@H]1CC[C@@H](CN(C)C)C1=O : is its growth inhibition no less than 90%?
rule not met

Check if growth inhibition >= 90% (inclusive). Item: O=C1C2CC[C@@H]3C(=O)C(Cl)(Cl)[C@@H]3CCC2C1(Cl)Cl (some centres not stated)
rule not met

Dear colleague, could you confirm whether Cc1ccc2[nH]c3c(C)c4cc[n+](C)cc4c(C)c3c2c1 has growth inhibition at or above 90%?
rule not met

Identify whether the reported growth inhibition of the following compound is 90% or greater: Cc1ccc2ccc3cccc4ccc1c2c34
rule not met

# bool: growth inhibition of CCCN(CCC)CC(O)c1cc(-c2ccc(Cl)cc2)nc2c(C)c(Cl)ccc12 (configuration not stated) >= 90%
rule met

Entry O=C(c1cc(Br)ccc1O)c1cc(Br)ccc1O : is its growth inhibition no less than 90%?
rule met

For this compound, is measured growth inhibition 90% or higher? O=C1c2ccccc2C(=O)c2cc(CBr)ccc21
rule met

Could you verify whether the entry CC(=O)N/N=C/C(C)(C)C(C)(C)/C=N/NC(C)=O shows growth inhibition of no less than 90%?
rule not met

Hello, I need to know if O=[N+]([O-])C(=C(Sc1ccccc1)Sc1ccccc1)C(Cl)=C(Cl)Cl has measured growth inhibition not below 90%. Thanks!
rule not met

// inclusive: growth inhibition at least 90%? input: BrCc1cccc2ccc3cccc(CBr)c3c12
rule not met

----------
# test_method_notes: NCI Yeast Anticancer Drug Screen. Data for the mgt1 strain (AID 153)
# condition: S. cerevisiae mgt1 mutant growth inhibition; at 1.2 µM; active compounds read high
# Procedure: Growth inhibition of yeast strains with defined genetic alterations is measured as a screen for potential anti-cancer activity. Selected strains with alterations in DNA damage repair or cell cycle control were exposed to compounds and growth inhibition was measured relative to vehicle treated controls. The strain used in this assay is mgt1
Compounds without any hit were thinned out: in the full panel of roughly 79,000, 15% have a hit.
parameter_measured: growth inhibition (%)
Numeric answer only, unit % assumed.

Entry CCOC(=O)C(NC(=O)c1ccccc1)(N1CCN(c2cc3c(cc2F)c(=O)c(C(=O)O)cn3C2CC2)CC1)C(F)(F)F (stereo not given) needs its growth inhibition filled in; supply it.
1

Input O=[N+]([O-])c1cc(CCl)ccc1CCl , output reported growth inhibition.
4

For the molecule CC(C)/C(Cl)=N\OC(=O)Nc1ccccc1F , report growth inhibition.
0

Dear colleague, please send me the reported growth inhibition for O=C(O)CNc1ccc(Cl)c(Cl)c1 when you can.
-2

Look up growth inhibition of CCCCCCCCCCCCCCCCCCN(C)CC(COP(=O)([O-])OCC[N+](C)(C)C)OC (stereo not given) and report it.
21

Item S=C(Nc1ccc(Cl)c(Cl)c1)SCc1ccc2c(c1)OCO2 : provide growth inhibition
-2

Retrieve growth inhibition measured for O=C1Nc2ccccc2/C1=C/COc1ccccc1 and print it.
-1

Item CCN(CC)C(C)(C)C(=O)/C=C/c1ccccc1 : provide growth inhibition
-3

Give me measured growth inhibition, please, for this molecule: Nc1nc(Cl)c(Cl)c(Cl)n1
1

Please indicate growth inhibition recorded for Clc1cccc(C(Nc2nncs2)Nc2nncs2)c1Cl
0

Specify growth inhibition for O=CC=C(c1ccccc1)c1ccccc1 and stop.
-10

Return the recorded growth inhibition value; entry: CC(=O)OCCOCNC(=S)N/N=C(\C)c1cnccn1
8

Return growth inhibition for the following molecule: CCC[CH2][Ge]([CH2]CCC)([CH2]CCC)[O]C(=O)C(OC)c1ccccc1 (stereo not given)
-2

Entry COc1ccc2ccc3ccccc3c2c1C=O needs its growth inhibition filled in; supply it.
-7

Consider the molecule C(CCSC1=NCCN1)CSC1=NCCN1 (tested in a mixture with another compound) and give its recorded growth inhibition.
-2

Hello, please tell me recorded growth inhibition for this one: COc1ccc2sc3cccc(NCCN(C)C)c3c(=O)c2c1
-1

Indicate the recorded growth inhibition value for this molecule: C=C(CN(C)C)C(=O)c1cc(C)ccc1C
2

Given S=C(Nc1ccc(Cl)cc1)SC1CCCCC1 , respond with its growth inhibition.
16

Complete the entry with growth inhibition for O=C(NNc1ccnc2cc(Cl)ccc12)/C(=C\c1ccccc1Cl)NC(=O)c1ccccc1
2

Annotate the molecule Cn1c2ccccc2c(=O)c2cc(NC(=O)CCCCC(=O)Nc3ccc4c(c3)c(=O)c3ccccc3n4C)ccc21 with its measured growth inhibition.
1

Please report the measured growth inhibition for CC(C)OC(=O)Oc1ccccc1OC(=O)OC(C)C
2

Give growth inhibition for O=C([O][Sn]([O]C(=O)c1ccccc1)([c]1ccccc1)[c]1ccccc1)c1ccccc1
1

Quickly give me recorded growth inhibition for C[C@@H]1C[C@H]2[C@@H]3CCC4=CC(=O)C=C[C@]4(C)[C@@]3(Cl)[C@@H](Cl)C[C@]2(C)[C@@]1(O)C(=O)COP(=O)(O)O
11

Answer with the recorded growth inhibition for the molecule listed here: CCOC(=O)c1cc(-c2ccc(Cl)cc2)c([N+](=O)[O-])n1C
-10

Note down growth inhibition recorded for CCOC(=O)c1cnc2c(C(F)(F)F)cccc2c1N=[N+]=[N-]
0

Please indicate growth inhibition recorded for Cc1nn(-c2cc(Cl)ccc2[N+](=O)[O-])c(C)c1Cl
-2

Supply reported growth inhibition belonging to this molecule: COc1ccc2nc3cccc([N+](=O)[O-])c3c(NCCN(CCO)CCO)c2c1
-3

# return recorded growth inhibition for entry Cc1c(C(Cc2ccccc2N(C)C(=O)/C=C\C(=O)O)c2c[nH]c3ccccc23)c2ccccc2n1C (stereo not given)
-3

Determine its reported growth inhibition: CC1OCC2OC(C)OC(C3C4=C(CC(C)(C)CC4=O)OC4=C3C(=O)CC(C)(C)C4)C2O1 (stereo not given)
-1

Specify growth inhibition for Cc1c(C(=O)C(=O)c2ccccc2)c(C)c(C(=O)C(=O)c2ccccc2)c(C)c1C(=O)C(=O)c1ccccc1 and stop.
-2

In one line, give reported growth inhibition of the entry CC(Br)C(=O)c1ccc2cc(Br)c3ccccc3c2c1 (stereo not given) .
-1

Tell me measured growth inhibition for O=C(/C=C/c1cccc(Br)c1)c1cccs1 please.
-1

Input Cc1nc(-c2ccccc2)c(-c2ccccc2)s1 , output reported growth inhibition.
24

Determine from records and report growth inhibition for CCN(CC)CCN1C(=O)c2cccc3cc(OC)cc(c23)C1=O
-10

Identify measured growth inhibition corresponding to CC[C@@]1(O)C(=O)OCc2c1cc1n(c2=O)Cc2cc3c(CN(C)C)c(O)ccc3nc2-1
11

Where do these numbers come from? They come from PubChem BioAssay (NCI).
